These data points were gathered from ChEMBL document CHEMBL4014311.

assay-explanation: Oral bioavailability in Sprague-Dawley rat at 6 mg/kg by LC/MS/MS analysis
Assay type: ADME, organism-based
measurement-context: in vivo

{"molecule-smiles": "CNC(=O)c1c(-c2ccc(F)cc2)oc2ccc(-c3cc(C(=O)NC4(c5ncccn5)CC4)ccc3C)c(F)c12", "value-modifier": "=", "bioavailability / %": 48}
{"molecule-smiles": "CNC(=O)c1c(-c2ccc(F)cc2)oc2ccc(-c3cc(C(=O)NC4(c5ncccn5)CC4)ccc3C)cc12", "value-modifier": ">", "bioavailability / %": 100}

----------
assay-explanation: Aqueous solubility of compound
Assay type: physicochemical
measurement-context: buffer
test-readout: solubility

{"molecule-smiles": "CNC(=O)c1c(-c2ccc(F)cc2)oc2ccc(-c3cc(C(=O)NC4(c5ncccn5)CC4)ccc3C)c(F)c12", "test-readout": "solubility", "observed-result": "< 1 µg/mL"}

----------
assay-explanation: Cmax in Sprague-Dawley rat at 6 mg/kg, po administered via gavage using docusate sodium/methocel/water formulation by LC/MS/MS analysis
Format: ADME, organism-based
Set-up: dose 6 mg/kg, route oral
measurement-context: in vivo

{"molecule-smiles": "CNC(=O)c1c(-c2ccc(F)cc2)oc2ccc(-c3cc(C(=O)NC4(c5ncccn5)CC4)ccc3C)c(F)c12", "Cmax, µM": 14.7}

----------
assay-explanation: Lipophilicity, log D of the compound at pH 6.5 by shake flask method
Assay type: physicochemical
measurement-context: buffer
test-readout: logD

{"molecule": "CNC(=O)c1c(-c2ccc(F)cc2)oc2ccc(-c3cc(C(=O)NC4(c5ccccn5)CC4)ccc3C)cc12", "observed-result": 5.42}
{"molecule": "CNC(=O)c1c(-c2ccc(F)cc2)oc2ccc(-c3cc(C(=O)NC4(c5ncccn5)CC4)ccc3C)c(F)c12 [BMS-929075]", "observed-result": 5.09}
{"molecule": "CNC(=O)c1c(-c2ccc(F)cc2)oc2ccc(-c3cc(C(=O)NC4(c5ncccn5)CC4)ccc3C)cc12", "observed-result": 4.76}

----------
Collected EC50 values appear next to each entry.
Test system: Hepatitis C virus
assay-explanation: Antiviral activity against HCV genotype 1a infected in human HuH7 cells after 3 days by luciferase reporter assay
Type: functional, cell-based, Hepacivirus hominis, subtype 1a
measurement-context: Hepatitis C virus, subtype 1a, Huh-7, 72 h; read-out: EC50

{"molecule-smiles": "CNC(=O)c1c(-c2ccc(F)cc2)oc2ccc(-c3cc(C(=O)NC4(c5cccnn5)CC4)ccc3C)cc12", "unit": "µM", "EC50": 0.017}
{"molecule-smiles": "CNC(=O)c1c(-c2ccc(F)cc2)oc2ccc(-c3cc(C(=O)NC4(c5ccccc5)CC4)ccc3F)cc12", "unit": "µM", "EC50": 0.016}
{"molecule-smiles": "CNC(=O)c1c(-c2ccc(F)cc2)oc2ccc(-c3cc(C(=O)NC4(c5cnccn5)CC4)ccc3C)cc12", "unit": "µM", "EC50": 0.015}
{"molecule-smiles": "CCNC(=O)c1cccc(-c2ccc3oc(-c4ccc(F)cc4)c(C(=O)NC)c3c2)c1", "unit": "µM", "EC50": 1}

----------
Quick record: IC50, Cytochrome P450 3A4 (Homo sapiens).
test-readout: IC50 (nM)

{"compound": "CNC(=O)c1c(-c2ccc(F)cc2)oc2ccc(-c3cc(C(=O)NC4(c5ccccn5)CC4)ccc3C)cc12", "test-readout": "IC50", "value-modifier": "=", "observed-result": 4100}
{"compound": "CNC(=O)c1c(-c2ccc(F)cc2)oc2ccc(-c3cc(C(=O)NC4(c5ccccc5)CC4)ccc3C)cc12", "test-readout": "IC50", "value-modifier": "=", "observed-result": 2100}
{"compound": "CNC(=O)c1c(-c2ccc(F)cc2)oc2ccc(-c3cc(C(=O)NC4(c5ncccn5)CC4)ccc3C)c(F)c12 [BMS-929075]", "test-readout": "IC50", "value-modifier": ">", "observed-result": 13000}
{"compound": "CNC(=O)c1c(-c2ccc(F)cc2)oc2ccc(-c3cc(C(=O)NC4(c5ncccn5)CC4)ccc3C)cc12", "test-readout": "IC50", "value-modifier": "=", "observed-result": 11400}
{"compound": "CNC(=O)c1c(-c2ccc(F)cc2)oc2ccc(-c3cc(C(=O)NC4(c5ccncc5)CC4)ccc3C)cc12", "test-readout": "IC50", "value-modifier": "=", "observed-result": 73}
{"compound": "CNC(=O)c1c(-c2ccc(F)cc2)oc2ccc(-c3cc(C(=O)NC4(c5cccnc5)CC4)ccc3C)cc12", "test-readout": "IC50", "value-modifier": "=", "observed-result": 63}
